test system: Septoria tritici; experiment: In vivo protective test, Septoria tritici (blotch in wheat); conditions: application rate 500 ppm, wheat plants, evaluation 21-28 days after inoculation, 0% = control, 100% = no infection
quantity-kind: Efficacy [%] (%)
Entry rule: numbers only, all in %.

Consider the following illustrative entries.
>  <compound>
COC1(C(N)=O)CC(c2cc(Br)cc(OC(F)(F)F)c2)=NO1 (stereo not shown) [Compound 1.32-1]

>  <tested-system>
Septoria tritici

>  <result-unit>
%

>  <Efficacy [%]>
98

$$$$
>  <compound>
CCOC(=O)CC(C)NC(=O)C1(OC)CC(c2cc(F)cc(OC)c2)=NO1 (stereo not shown) [Compound 1.16-96]

>  <tested-system>
Septoria tritici

>  <result-unit>
%

>  <Efficacy [%]>
88

$$$$
>  <compound>
C=CCNC(=O)C1(OC)CC(c2cc(Cl)cc(OC(F)(F)F)c2)=NO1 (stereo not shown) [Compound 1.25-16]

>  <tested-system>
Septoria tritici

>  <result-unit>
%

>  <Efficacy [%]>
97

$$$$

# next compound below
# input compound: CCn1cc(CNC(=O)C2(OC)CC(c3cc(Br)cc(OC(F)(F)F)c3)=NO2)cn1 (stereo not shown) [Compound 1.32-206] ; wanted: its Efficacy [%] 100
